measurement_target: Sphingosine kinase 2 (Homo sapiens)
Sequence (whole entry): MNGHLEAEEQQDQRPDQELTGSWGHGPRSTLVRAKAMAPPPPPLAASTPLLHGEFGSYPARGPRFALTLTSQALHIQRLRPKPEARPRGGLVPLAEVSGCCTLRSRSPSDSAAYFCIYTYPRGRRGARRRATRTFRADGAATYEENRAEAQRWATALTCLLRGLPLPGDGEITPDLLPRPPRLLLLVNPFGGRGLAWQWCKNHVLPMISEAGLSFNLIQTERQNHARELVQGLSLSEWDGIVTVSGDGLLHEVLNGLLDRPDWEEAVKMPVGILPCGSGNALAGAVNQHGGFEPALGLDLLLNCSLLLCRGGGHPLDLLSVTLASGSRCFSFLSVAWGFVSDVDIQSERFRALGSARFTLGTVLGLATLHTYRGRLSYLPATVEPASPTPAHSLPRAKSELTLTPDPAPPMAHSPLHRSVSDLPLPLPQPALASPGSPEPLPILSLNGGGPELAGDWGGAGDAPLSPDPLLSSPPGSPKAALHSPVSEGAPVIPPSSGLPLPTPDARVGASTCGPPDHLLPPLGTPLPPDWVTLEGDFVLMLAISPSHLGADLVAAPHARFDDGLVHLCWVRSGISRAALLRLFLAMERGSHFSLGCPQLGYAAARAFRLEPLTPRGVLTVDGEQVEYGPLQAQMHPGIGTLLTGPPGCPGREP
experimental_details: Inhibition of sphingosine kinase 2 (unknown origin) using sphingosine as substrate at 50 uM after 30 mins relative to control in presence of [gamma32P]-ATP
condition_set: 50 uM
Active and inactive are the calls of the source. No cut-off for these calls is given here.
Respond using exactly one of the listed classes: YES (active), NO (inactive)

Some solved entries appear below for comparison.
| substance_smiles | class_assignment |
| --- | --- |
| CCCCCc1cn(-c2ccc(CC[N+]3(C)CCCCC3)cc2)nn1 | NO |
| CCCCCCCCc1cn(-c2ccc(CC[N+]3(C)CCCCC3)cc2)nn1 | NO |
| CCCCCCCCc1ccc(C[n+]2ccc(N3CCC(C)CC3)cc2)cc1 | YES |

Here is the next item to consider.
Could you check what this test reported for `CCCCCCCCc1ccc(CCc2ccc[n+](C)c2)cc1` ?
NO

---

measurement_target: Sphingosine kinase 1 (Homo sapiens)
Sequence (Q9NYA1 whole entry): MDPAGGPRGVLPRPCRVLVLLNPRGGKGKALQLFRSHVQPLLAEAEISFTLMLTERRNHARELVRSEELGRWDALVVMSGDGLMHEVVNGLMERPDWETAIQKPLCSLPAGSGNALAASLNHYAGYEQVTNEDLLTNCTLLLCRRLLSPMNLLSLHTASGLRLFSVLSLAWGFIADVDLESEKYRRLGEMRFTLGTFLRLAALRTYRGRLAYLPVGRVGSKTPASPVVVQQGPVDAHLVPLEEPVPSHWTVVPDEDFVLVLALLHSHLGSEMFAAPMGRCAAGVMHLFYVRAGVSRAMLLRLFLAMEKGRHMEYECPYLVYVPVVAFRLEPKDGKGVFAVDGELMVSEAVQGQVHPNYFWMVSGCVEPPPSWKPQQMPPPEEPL
experimental_details: Inhibition of recombinant sphingosine kinase 1 (unknown origin) expressed in HEK293 cells using sphingosine as substrate at 50 uM after 30 mins relative to control in presence of [gamma32P]-ATP
Calls of active or inactive are those of the source. The calls are words filed in the database; no cut-off is given here.
Choose one outcome from this list and give only that: t (active), f (inactive)

| substance_smiles | measurement_target | class_assignment |
| --- | --- | --- |
| CCCCCCCCc1ccc(-n2cc(-c3cccnc3)nn2)cc1 | Sphingosine kinase 1 (Homo sapiens) | f |
| CCCCCCCCc1ccc(CCCN2CCC(O)CC2)cc1 | Sphingosine kinase 1 (Homo sapiens) | t |

Turning now to a further record.
Can you look up the reported call for `CCCCCCCCc1ccc(CN2CCC(O)CC2)cc1` for me?
t
